# Tested on: COLO 205 colon
# method: NCI-60 one-dose screen, 48 h
# experimentalParameters: 10 µM unless noted
This is part of a sample that, as a whole, favours compounds with a hit. Of some 83,000 tested, about 20% had one in any assay. Calls of active or inactive are those of the source. Rule for the calls: active = growth percent below 10; inactive = the rest.
Outcome codes: T for active, F for inactive

1) O=C(CSc1nc2ccccc2[nH]1)Nc1ccc(-c2nc3ccccc3s2)c(Cl)c1
F
2) Fc1ccccc1-c1nc(-c2nc3cc(Cl)c(Cl)cc3[nH]2)c2ccccn12
F
3) O=C1NN(C(=O)c2ccc(Cl)cc2)C(c2ccccc2)=N/C1=C\c1cn(-c2ccccc2)nc1-c1ccccc1
F
4) OCc1ncc(-c2ccccc2)s1
F
5) CN(C)c1cccc2c(S(=O)(=O)/N=C(\N)Nc3nc4ccccc4s3)cccc12
F
6) CCOC(=O)NNC(=S)Nc1ccccc1
F
7) C=C[C@@H]1C[C@@H]2Cc3ccccc3N1O2
F
8) CCCCCCCCCCCC(=O)NCCC[N+](C)(C)CC(=O)[O-]
F
9) CCN(CC)c1ccc(/C=C2\Oc3ccc(O)c(I)c3C2=O)cc1
F
10) C=C1CCC2C3(C)COC(C)(C)OC3CCC2(C)C1C/C=C1/C(=O)OCC1Oc1ccccc1OC (stereo unspecified)
F
11) CC(C)(C)n1cc(-c2ccnc(NCCCNS(=O)(=O)c3ccc(C(F)(F)F)cc3)c2)c(-c2cccc(O)c2)n1
T
12) CN1C(=O)N(C)C2C1NN=c1s/c(=C\c3cccnc3)c(=O)n12 (stereo unspecified)
F
13) Cc1ccc2nc(-c3cc4c([nH]c5ccccc54)c(-c4ccc(F)c(F)c4)n3)[nH]c2c1
F
14) COc1ccc(S(=O)(=O)n2ccc(-c3ccc4c(c3)CCC(C)(C)O4)n2)cc1OC
F
15) O=C(NS(=O)(=O)c1ccccc1)n1cc(-c2ccncc2)c(-c2ccc(Cl)c(O)c2)n1
F
16) O=C(O)Cc1cccc(=O)c(O)c1C(=O)O
F
17) CSc1nc2c(c(=O)[nH]1)C(c1ccc(C)cc1)C=C(C(=O)O)N2 (stereo unspecified)
F
18) Cc1cc(N/N=C/c2nc(-c3ccc(Br)cc3)oc2C)c2cc(Cl)ccc2n1
F
19) COc1ccc(-c2nc(/C=N/Nc3cc(C)nc4ccc(Cl)cc34)c(C)o2)cc1
T
20) NNc1cccc(/C=C/c2ccccc2)cc1=O
F
21) COc1ccc2c(c1)OC1=C(C(=O)OC1)C2c1cc(OC)c2c(c1)OCO2 (stereo unspecified)
T
